Target: Hepatocyte nuclear factor 4-alpha (Homo sapiens) (UniProt P41235)
Sequence (P41235 whole entry, looked up): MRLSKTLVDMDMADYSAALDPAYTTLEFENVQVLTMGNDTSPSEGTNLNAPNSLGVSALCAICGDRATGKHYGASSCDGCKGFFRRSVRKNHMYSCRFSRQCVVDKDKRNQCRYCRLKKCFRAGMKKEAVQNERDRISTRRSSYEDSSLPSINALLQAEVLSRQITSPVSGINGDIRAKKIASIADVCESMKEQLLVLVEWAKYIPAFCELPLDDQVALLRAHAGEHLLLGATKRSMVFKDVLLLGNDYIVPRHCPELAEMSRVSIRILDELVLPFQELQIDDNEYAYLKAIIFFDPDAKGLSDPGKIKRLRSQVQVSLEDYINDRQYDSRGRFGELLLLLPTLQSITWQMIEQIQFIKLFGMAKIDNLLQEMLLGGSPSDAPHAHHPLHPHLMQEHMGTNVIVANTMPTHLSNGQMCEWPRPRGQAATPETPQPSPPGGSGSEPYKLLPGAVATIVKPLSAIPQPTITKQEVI
Assay: change in binding of human HNF4A to DNA, primary screen, biochemical, fluorescence polarization, FITC-DNA (AID 1224865)
Settings: 1 h, at 10 µM
Hit rate of the full screen: of about 360,000 compounds, about 1,100 (0.31%) were called active. Cut-off read from the data, not from the text of the source: active = activity change above about 30% (passing the limit was not always enough); inactive = the rest. What follows is part of a selection rich in actives, with near analogues and random picks from the rest.
Possible outcomes: Y = active, N = inactive

Compound	Class
Cc1cccc(C)c1NC(=O)C(c1cccc2ccccc12)n1c(=O)c(-c2ccco2)nc2ccccc21 (stereo unspecified)	N
COC(=O)CSc1ccc2nnc(CCNS(=O)(=O)c3ccc(C)cc3)n2n1	N
O=C(NC(=S)Nc1ncccn1)c1ccccc1Br	N
CCOC(=O)N1CCN(C(=O)C2CCN(S(C)(=O)=O)CC2)CC1	Y
CCOC(=O)[C@@H]1[C@H]2COc3cc(OC)ccc3[C@H]2N2C(=O)N(c3ccc(F)cc3)C(=O)[C@]12C	N
CC1C(=O)N2CCCc3cc(S(=O)(=O)NCc4ccc(F)cc4)cc1c32 (stereo unspecified)	N
Cc1cc(C(=O)CC#N)c(C)n1-c1c(C)n(C)n(-c2ccccc2)c1=O	N
Cc1ccc(CNC(=O)c2ccc(CS(=O)Cc3cccc(Cl)c3)o2)cc1 (stereo unspecified)	N
O=C(CSc1nnc(Cn2cnc3ccccc32)o1)c1ccccc1	N
NC(CSC(c1ccccc1)(c1ccccc1)c1ccc(-c2ccccc2)cc1)C(=O)O (stereo unspecified)	N
COC(=O)c1ccccc1N=NNc1ccc([N+](=O)[O-])cc1	N
COc1ccc(CCNC(=O)C(=O)NCC2OCCN2S(=O)(=O)c2cccs2)cc1OC (stereo unspecified)	N
CCN1/C(=C\c2ccc3ccccc3[n+]2CC)Sc2cc(C)ccc21	Y
Cc1cccn2c(=O)c(/C=C3\SC(=S)N(CC(C)C)C3=O)c(NCCCOC(C)C)nc12	Y
O=C(Cn1nnc(-c2ccc(CN3CCOCC3)cc2)n1)NC1CCCCC1	N
CCOC(=O)C1CCCN(C(=O)CSc2nnc3nc(C)cc(C)n23)C1 (stereo unspecified)	N
O=C(CCN1C(=O)C2CCCCC2C1=O)Nc1ccc(OC(F)F)cc1 (stereo unspecified)	N
CCOCCCNC(=O)Cc1cc(=O)[nH]c(=O)[nH]1	N
Cc1cccc(NC(=O)c2ccc(S(=O)(=O)N(C)CC3CCCO3)cc2)c1C (stereo unspecified)	N
O=C1CCC(C(=O)N2CCCCO2)CN1Cc1cccc(C(F)(F)F)c1 (stereo unspecified)	N
CCOC(=O)C1CCN(C(=O)C2CCN(S(=O)(=O)N3CCCC3)CC2)CC1	N

---

Molecular target: Hepatocyte nuclear factor 4-alpha (Homo sapiens)
Assay: change in binding of human HNF4A to DNA, primary screen, biochemical, fluorescence polarization, FITC-DNA (AID 1224865)
Conditions: 1 h, at 10 µM, stronger effect = higher value
About 1,100 (0.31%) of roughly 360,000 compounds were called active. The full list was thinned out, with actives kept by preference.
Listing: activity change of selected compounds
Measured Attribute: activity change (%)

1. C=CCn1c(SCC(=O)NC23CC4CC(CC(C4)C2)C3)nc(O)cc1=O 2.14
2. O=C(Nc1cc(Cl)ccc1N1CCOCC1)c1ccc(N2CCCC2=O)cc1 -2.01
3. O=C(COC(=O)c1ccc(F)c(S(=O)(=O)N2CCOCC2)c1)NCc1ccc2c(c1)OCO2 2.9
4. O=C(NCc1ccncc1)c1cccc(NS(=O)(=O)c2ccc(F)c(F)c2)c1 -3.8
